Where do these numbers come from? They come from ChEMBL document CHEMBL4689842.

System: Fibroblast
Assay: Multiplex assay against human fibroblast
Type: toxicity, cell-based
Details: 48 h, 1 µM, compound concentration 1 uM, replicate 1
measured.attribute: Population Membrane Permeable-Phenotype (%)
Express the reported value numerically, then name its unit.

# annotated cases, reported Population Membrane Permeable-Phenotype (%) shown
| chemical.string | measured |
| --- | --- |
| C=C1/C(=C\C=C2/CCC[C@]3(C)[C@@H]([C@H](C)/C=C/[C@H](C)C(C)C)CC[C@@H]23)C[C@@H](O)C[C@@H]1O | 21% |
| Cc1ccc(C(=O)Nc2cccc(C(F)(F)F)c2)cc1Nc1nc(-c2cccnc2)nc2c1cnn2C | 15% |

Please look at the following compound next.
Task: For CCN1CCN(Cc2ccc(Nc3ncc(F)c(-c4cc(F)c5nc(C)n(C(C)C)c5c4)n3)nc2)CC1.CS(=O)(=O)O , what is its reported Population Membrane Permeable-Phenotype (%)?
Output: 6%

###

Tested on: Fibroblast
Assay: Multiplex assay against human fibroblast
Format: toxicity, cell-based
Conditions: 12 h, 1 µM, compound concentration 1 uM, replicate 2
measured.attribute: Population Membrane Permeable-Phenotype (%)
Give bare numbers, in %.

| chemical.string | target.entity | readout.units | measured |
| --- | --- | --- | --- |
| COC(=N)c1nc2ccc3ncnc(Nc4ccc(OC)cc4F)c3c2s1 | Fibroblast | % | 6 |
| CNc1cc(Oc2cc(C(=O)Nc3cc(N4CCN(C)CC4)cc(C(F)(F)F)c3)ccc2C)ncn1 | Fibroblast | % | 10 |
| CN1CCN(C(=O)C(C)(C)c2ccc(C(=O)Nc3cn4cc(-c5cc(C(C)(C)C)cc(C(C)(C)C)c5)ccc4n3)cc2)CC1 | Fibroblast | % | 14 |

Now take the following compound into account.
Task: I am curious: what Population Membrane Permeable-Phenotype (%) value has been reported for O=C(Cc1ccc(-c2ccc(OCCN3CCOCC3)cc2)cn1)NCc1ccccc1 ?
Output: 9

###

Exercise: state measured Population Tubulin-Different-Phenotype (%) for each of the compounds provided.
Test system: Fibroblast
Assay: Multiplex assay against human fibroblast
Assay type: toxicity, cell-based
Conditions: 48 h, 10 µM, compound concentration 10 uM, replicate 1
Give bare numbers, in %.

Examples with their reported Population Tubulin-Different-Phenotype (%) follow.
| compound | readout.units | measured |
| --- | --- | --- |
| CN1CCC(=C2c3ccccc3CC(=O)c3sccc32)CC1.O=C(O)/C=C/C(=O)O [KETOTIFEN FUMARATE] | % | 68 |
| O=C1NC(=O)C(c2cnc3ccccn23)=C1c1cn2c3c(cc(F)cc13)CN(C(=O)N1CCCCC1)CC2 [LY-2090314] | % | 71 |
| COCC(=O)NC/C=C/c1ccc2ncnc(Nc3ccc(Oc4ccc(C)nc4)c(C)c3)c2c1 [CP-724714] | % | 86 |

Quick request: Population Tubulin-Different-Phenotype (%) for each listed item, please.
1. C=C1/C(=C\C=C2/CCC[C@]3(C)[C@@H]([C@H](C)/C=C/[C@H](C)C(C)C)CC[C@@H]23)C[C@@H](O)C[C@@H]1O [DOXERCALCIFEROL]
2. S=C(NCCCc1c[nH]cn1)NCCCN(Cc1ccc(Cl)c(Cl)c1)c1ccc(Br)cn1

Output:
1: 2; 2: 91

###

Tested on: U2OS
Assay: Multiplex assay against U2OS
Assay type: toxicity, cell-based
Settings: human, 12 h, 10 µM, compound concentration 10 uM, replicate 1
measured.attribute: Population Fragmented Nuclei (%)
Give bare numbers, in %.

Completed entries (count: 8):
| molecule | readout.units | measured |
| --- | --- | --- |
| COc1ccc(S(=O)(=O)N(CCO)c2ccccc2CN(C)C/C=C/c2ccc(Cl)cc2)cc1.O=P(O)(O)O | % | 11 |
| CCc1cccc(CC)c1NC(=O)c1nn(C)c2c1CCc1cnc(Nc3ccc(C(=O)NC4CCN(C)CC4)cc3OC(F)(F)F)nc1-2 | % | 18 |
| C=C1/C(=C\C=C2/CCC[C@]3(C)[C@@H]([C@H](C)/C=C/[C@H](C)C(C)C)CC[C@@H]23)C[C@@H](O)C[C@@H]1O | % | 20 |
| O=C(Cc1ccc(-c2ccc(OCCN3CCOCC3)cc2)cn1)NCc1ccccc1 | % | 10 |
| CN1CCN(C(=O)C(C)(C)c2ccc(C(=O)Nc3cn4cc(-c5cc(C(C)(C)C)cc(C(C)(C)C)c5)ccc4n3)cc2)CC1 | % | 5 |
| Cl.Oc1ccc2c3c1O[C@H]1c4[nH]c5c(c4C[C@@]4(O)[C@@H](C2)N(CC2CC2)CC[C@]314)C[C@@]1(O)[C@H]2Cc3ccc(O)c4c3[C@@]1(CCN2CC1CC1)[C@H]5O4 | % | 14 |
| CNc1cc(Oc2cc(C(=O)Nc3cc(N4CCN(C)CC4)cc(C(F)(F)F)c3)ccc2C)ncn1 | % | 40 |
| O=C(Nc1ccc(-c2ccnc(Nc3ccc(N4CCOCC4)cc3)n2)cc1)[C@@H]1CCCN1 | % | 13 |

Now look at this entry.
Task: Find Population Fragmented Nuclei (%) (U2OS) for the entry CN(C)C(=O)C(CCN1CCC(O)(c2ccc(Cl)cc2)CC1)(c1ccccc1)c1ccccc1.Cl [LOPERAMIDE HYDROCHLORIDE]
Output: 16
